// reported apparent KD of MS2 coat protein for each item listed
Test system: MS2 coat protein
Assay: apparent KD of MS2 coat protein; designed switch direction (-1 OFF switch, 1 ON switch): -1; higher = weaker reporter binding
Details: Eterna round: R95; input ligand: microRNA oligo, concentration not stated
Reply numerically in nM, unit not repeated.

{"columns": ["Sequence Chain", "apparent KD of MS2 coat protein (nM)"],
 "data": [
  ["UAAAAGUGAGGAUAUACAUUAAGGUAAGUCCGGAUGCGAAGACAUGAGGAUCACCCAUGUAGAAGGCACACAAA [Aredge] (puzzle: Exclusion 2)", 32.1],
  ["AUAUCCCGAGGAUAUACAUGAGGAUCACCCAUGUCGGGCCUCUGGCCUAAGGCCGAAAGUAGAAGGUGGGUUUC [JL Riri mod 11] (puzzle: Exclusion 3)", 126],
  ["GAAUACAAGUAAAGAUCCUACAUGAGGAUCACCCAUGUGCUCGUCUUGUAAAGUACUAUCACGAAAGUGAUAGUACA [Mat - Sensor v3 - turn-off var 1 - Eli Mod - D88] (puzzle: Sensor v3, turn-off variant 1)", 159],
  ["CUCGGACAUGAGGAUCACCCAUGUGAGGAUAUGGUGCUAUCGUCAUUAGACGAUUGCGUUAGAAGGCAUAUUUU [LRO-Excl1-30] (puzzle: Exclusion 1)", 24.4],
  ["CCAUGGAGUGUGAGGAUAUGCUGGUCCUUGGAUCAGCAGAAGGCACAUGAGGAUCACCCAUGUGAAUACCGUGG [Mat - Exclusion 4 - JL Mod - D83] (puzzle: Brourd's mod of Exclusion 4)", 31.4],
  ["UUUAAUUUUUUUUUUUUACAAGCUUUUUGCUCGUCUUAUACAUGAGGAUCACCCAUGUAGGUGAAAGGUAAAUUAUC [JMF 65] (puzzle: Sensor v3, turn-off variant 2)", 117],
  ["GGUGCGUAUGUGAGGAUAUGCUGGUCCUUGGAUCGGCAGAAGGUACAUGAGGAUCACCCAUGUGGUGUCGUUCU [salish99_Bmod_ex4_105] (puzzle: Brourd's mod of Exclusion 4)", 232],
  ["GUAAUUAUAUAGGAUAUCGAAAGUAUAAUUUAACGAGAAGGAUGAACAUGAGGAUCACCCAUGUGGUAUCAUGG [JL-ex6-3.08] (puzzle: Exclusion 6)", 321],
  ["CAUGAUCUUCGGAUCAUGUACAUGAGGAUCACCCAUGUGACGAGUUUAUGGGUGAACAAGCUUUUUGCUCGUCUUAU [Sensor v3 - Turn-off variant 1 - 6] (puzzle: Sensor v3, turn-off variant 1)", 11.2]
]}

Switching to the query record.
Please state recorded apparent KD of MS2 coat protein (tested on MS2 coat protein) of GGGUCACAUGAGGAUCACCCAUGUGAGGAUAUGAUACUAUGUACUUCGGUACAUAGUAUCAGAAGGCACAUCCC [Ex1-3: 17] (puzzle: Exclusion 1)
18.6

----------
Reported apparent KD of MS2 coat protein is given for each of the following sequences.
Tested on: MS2 coat protein
Test: apparent KD of MS2 coat protein; designed switch direction (-1 OFF switch, 1 ON switch): 1; higher = weaker reporter binding
Conditions: input ligand: microRNA oligo, concentration not stated
Number in nM, nothing else.

{"columns": ["Sequence Chain", "Experimental System", "Numeric Readout"],
 "data": [
  ["CUGACGUGAUCAGGAUAUUGUAAGACAAUGUUGCAAGAAGGGAUUAAUGAGCCCGAACAGACAUGAGGAUCACCCAUGUGUCAG [Eternabot solution 41] (Eterna round: R96, puzzle: Same State NG 1)", "MS2 coat protein", 51.6]
]}

Returns the measured apparent KD of MS2 coat protein for the input sequence. Input: UGGUACAUGGGAGGAUAUCCUAUGGUGACAUGAGGAUCACCCAUGUAAUUGGAGCCGAAAGGCAUGGAGAAGGCCCAUGUACCU [JL SSNG1 3.78] (Eterna round: R96, puzzle: Same State NG 2)
31.4

Recorded apparent KD of MS2 coat protein of UUCAAUGGGAUAGGAUAUCCUGCGGCGAGGCGUGGAGAAGGGUCAAGUACAUGAGGAUCACCCAUGUUUCGGAAAUAUUCCGAG [Eternabot solution 29] (Eterna round: R96, puzzle: Same State NG 1) , please.
41.5

Which apparent KD of MS2 coat protein is reported for this sequence? UUGCUCGUGUGAGGAUAUGCAGCCGUUUCGGCUGCAGAAGGUACUAUAAUACAUGAGGAUCACCCAUGUCUCUAUUGUUUAGUG [salish99_SSNG1_r04_927] (Eterna round: R96, puzzle: Same State NG 1)
19.6

Requested read-out: apparent KD of MS2 coat protein. Entry: CCUGACAUGAGGAUCACCCAUGUAGGGAAACAAUGACAUAUGGAGGAUAUACACCCGAAAGGCGCGUAGAAGGUCACAUGUCCA [Eternabot solution 5] (Eterna round: R96, puzzle: Same State NG 3)
10.8

For the sequence UGUACCUUCACAGGAUAUCAUGCGAAAAUUGCGUGAGAAGGGUGAAUACUGUCUUACUAAGAGCACAUGAGGAUCACCCAUGUA [SameState NG1 #58] (Eterna round: R96, puzzle: Same State NG 1) , what apparent KD of MS2 coat protein is on record?
198

GET /values?readout=apparent KD of MS2 coat protein&item= AAUAUAUUAAGUGAGGAUAUCGAGGAAAAAACAUGAGGAUCACCCAUGUGGGUAAAAAAAAAAAGUGAGAAGGUGCUUAAUAUAU [Samwise Clockwise 10 - Jieux - Same State 2] (Eterna round: R96, puzzle: Same State 2)
40.1

Value lookup for apparent KD of MS2 coat protein; key = GGACGUCAAUCUCCUACUUAAACAUGAGGAUCACCCAUGUCACAGGAUAUGAGUCCGAUUAGGACUCAGAAGGGUGAGACGUCC [Fiskers NG3ss - 50] (Eterna round: R96, puzzle: Same State NG 3)
15.2

Can you share its apparent KD of MS2 coat protein? I mean this sequence: CUGAGCGAUCAAGGAUAUCACGUCGAUUAGACGUGAGAAGGUGAUAAUUACAUGAGGAUCACCCAUGUAUAACAUGAAGCUCAG [SSNG1/9-A2] (Eterna round: R96, puzzle: Same State NG 1)
17.3

----------
Test system: K4 kissing-loop RNA reporter;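 note: bound reporter read as fluorescence of individual clusters on recovered sequencing chips by microscopy, with normalized cluster intensities fitted with a binding model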
Test: apparent KD of K4 kissing-loop reporter; higher = weaker reporter binding
Conditions: Eterna round: R107; input ligand: none
Reported Property: apparent KD of K4 kissing-loop reporter
Dear colleague, please send the value followed by its unit.

Some sequences with recorded apparent KD of K4 kissing-loop reporter:
{"columns": ["Sequence Chain", "Experimental System", "Result"],
 "data": [
  ["UUUGGAUUGCACUAAGAGCGCAAGCGCCAACGAGGACCGGUACGGCCGCCACUCGCGGAGGAGUCCAGUGAUGUUGGACGGCCCG [Onenusan]", "K4 kissing-loop RNA reporter", "0.359 µM"],
  ["GCCUUUGUACAGUCCGUUUGUCAUGUGGAUACCAGCAGGAUAGCUUGCCCUUGGCAGCCAUCCAUUUAAUGUAGUGAUGUUACGC [theeternabot_exclusion_KL_Theo_A_13]", "K4 kissing-loop RNA reporter", "0.477 µM"]
]}

Now for a further sequence.
What does the record list as apparent KD of K4 kissing-loop reporter for UUGACCAAAUUCCGGUGAUCAUCGCCGCCGCGAGGACCGGUACGGCCGCCACUCGUCCCUAUGCUCGGAGUAGUGAUGUUAUUCA [theeternabot_sameState_KL_Trp_A_43] ?
0.529 µM

----------
Test system: MS2 coat protein
Test: apparent KD of MS2 coat protein; designed switch direction (-1 OFF switch, 1 ON switch): 1; higher = weaker reporter binding
Conditions: input ligand: microRNA oligo, concentration not stated
Label scheme for apparent KD of MS2 coat protein: bucket A (below 60 nM), bucket B (60 nM to below 200 nM), bucket C (200 nM or more)

Record excerpt, results attached:
{"columns": ["Sequence Chain", "Experimental System", "Class Label"],
 "data": [
  ["ACAUGAGAGAAAGGAUAUCAUGUACCUACAUGUGACAUGAGGAUCACCCAUGUGGUAAGUAUGAGUGAGAAGGUUCAGAUAUGU [Equivalence 34 - Jieux - Same State NG 2] (Eterna round: R96, puzzle: Same State NG 2)", "MS2 coat protein", "bucket C"],
  ["GUGGUCAGACAUGAGGAUCACCCAUGUGGAAUAAAUAAGGAAAAGGAUAUGGAAUAUAGGAUAUACCAGAAGGUUUGGUUGGUG (Eterna round: R96, puzzle: Same State NG 3)", "MS2 coat protein", "bucket B"],
  ["AAGCAGAGGCAAGGAUAUGUGAAGACCCAGCCUAGGCUGGGCACAUGAGGAUCACCCAUGUACAAACAGAAGGUGUAACCAGGC [Eternabot solution 18] (Eterna round: R96, puzzle: Same State NG 2)", "MS2 coat protein", "bucket B"],
  ["CUCCGGAAGCGAGGAUAUGCAGAGGAUCACCCUGCAGAAGGCGCAAAAGCGAGGAUAUGCAGAGGAUCACCCUGCAGAAGGCGC [pwkr ssNG DX.33] (Eterna round: R96, puzzle: Same State NG 1)", "MS2 coat protein", "bucket A"],
  ["UAAAUAAUGAUAGGAUAUACAUGAGGAAUCCUCGUAGAAGGAUCAUGACAUGAGGAUCACCCAUGUAACGCUCGAAAGAGCGUA [Mat - Same State NG 1 - JL mod - D44] (Eterna round: R96, puzzle: Same State NG 1)", "MS2 coat protein", "bucket C"],
  ["UUAAUAAUGAUAGGAUAUACAUGAGGAAUUCUCGUAGAAGGAUCAUGACAUGAGGAUCACCCAUGUAACGCUCCGUAGAGCGUA [Mat - Same State NG 1 - JL mod - D36] (Eterna round: R96, puzzle: Same State NG 1)", "MS2 coat protein", "bucket C"],
  ["CGUCCAGCCUGAGCUGGACAAAAGCAUGUACAUGAGGAUCACCCAUGUUCAUGUACAAGCUUUUUGCUCGUCUUAGC [salish99_208a_r3_075] (Eterna round: R96, puzzle: Sensor for hsa-mir-208a)", "MS2 coat protein", "bucket A"],
  ["AUACCAUCAGGAGGAUAUGGCACCUUAUUGGUGCCAGAAGGUCUAACAUGAGGAUCACCCAUGUGGGAGUGGUCUAAUGACCAC [Eli NG1ss - 86] (Eterna round: R96, puzzle: Same State NG 1)", "MS2 coat protein", "bucket B"],
  ["CCAUAACGGUGAGGAUAUCGUUGCGAUAAGUGACGAGAAGGCAUUCAUGUGAAAUAAACAUACAUGAGGAUCACCCAUGUUGUA [Omei SS(NG)1 Bv1] (Eterna round: R96, puzzle: Same State NG 1)", "MS2 coat protein", "bucket A"],
  ["CGGCGCUGUCGAGAGGAUAUGCGGUGAUGGACAUGAGGAUCACCCAUGUUAGCGAUAGCAUCACGGUAGAAGGCUCUUACGCCUG [Soteed Omei mod 23] (Eterna round: R96, puzzle: Same State 2)", "MS2 coat protein", "bucket C"]
]}

Class? Entry: ACAUGAGACCUAGGAUAUCUUGUACCUACAUGUGACAUGAGGAUCACCCAUGUGGUAAGUAUGAUAGAGAAGGAGGAGAUAUGU [Equivalance 55 - Jieux - Same State NG 2] (Eterna round: R96, puzzle: Same State NG 2)
bucket A

For the record UGUUCGUAGGAAGGAUAUCGAAAUAAAGGCGUCCACAUGAGGAUCACCCAUGUCGGCGGACCAAACGAGAAGGUCUACCCGGAC [Eternabot solution 12] (Eterna round: R96, puzzle: Same State NG 2) , report the class its apparent KD of MS2 coat protein corresponds to.
bucket A

Hello team, could you let me know which band the following sequence falls into: GAGGGACAGACCAACAUGAGGAUCACCCAUGUCCUCGCAGGUCAGGAUAUUAUGAGGAUCACCCGUGAGAAGGGACGGUGAAUU (Eterna round: R96, puzzle: Same State NG 3)
bucket C

Form: Item = GAGUAGUUGAAAGGAUAUCGAUUGUUAUAGAAUCGAGAAGGUUCUAACAUGAGGAUCACCCAUGUAGGACUAUUCCUGUGUAUC [Parity 77 - Jieux - Same State NG 1] (Eterna round: R96, puzzle: Same State NG 1) ; Class = ?
bucket A

Exercise: read the entry GGUAGGUUACUACCAAACAUGAGGAUCACCCAUGUUGAUGGGAAGGAUAUGGUACCUUUUAGGUACCAGAAGGUCUACUCGAUC [NGss mod of JL's mod of Fisker 3] (Eterna round: R96, puzzle: Same State NG 3) and state which class it falls under.
bucket B

Which band does ACUUAGUACAAUUUAGAUCUACAUGAGGAUCACCCAUGUACUGAGGAUAUCAGCUCGUUUAGAGCUGAGAAGGCAGAAGUACUU [SSNG3/8-A3] (Eterna round: R96, puzzle: Same State NG 3) fall in?
bucket C

Please report the category associated with CUUGCCCAGUCAGGAUAUGGGAAAGGAAGUGUACCAGAAGGGACAAGAAAGGACAUGAGGAUCACCCAUGUCGGGCAGGCGAGA [PowerStrip SSNG 1.23] (Eterna round: R96, puzzle: Same State NG 1) , nothing else.
bucket B
